test: Stability of cannabinoid compounds and Vitamin E components in Beverage 1 (AB White) by LCMSMS; assay type: physicochemical; conditions: AB White stored at 21-25° C.; 11 days
reported-endpoint: Stability of Plant-Derived Cannabinoid Compounds in AB White, 21-25° C.

compound: C=C(C)[C@@H]1CCC(C)=C[C@H]1c1c(O)cc(CCCCC)c(C(=O)O)c1O
data-value: 1.76 µg/mL

compound: CCCCCc1cc(O)c2c(c1)OC(C)(C)[C@@H]1CCC(C)=C[C@@H]21 [D9 THC, delta-9-tetrahydrocannabinol, reference compound]
data-value: 12.1 µg/mL

compound: CCCCCc1cc(O)c2c(c1)OC1(C)CCC3C1C2C3(C)C (stereo not shown)
data-value: 0.552 µg/mL

compound: CCCCCc1cc(O)c2c(c1)OC(C)(C)c1ccc(C)cc1-2
data-value: 2.80 µg/mL

* * *

Below, each of the compounds is paired with its reported Stability of Plant-Derived Cannabinoid Compounds in AB White, 21-25° C. value.
test: Stability of cannabinoid compounds and Vitamin E components in Beverage 1 (AB White) by LCMSMS; assay type: physicochemical; settings: AB White stored at 21-25° C.; 22 days
reported-endpoint: Stability of Plant-Derived Cannabinoid Compounds in AB White, 21-25° C.

compound: CCCCCc1cc2c(c(O)c1C(=O)O)[C@@H]1C=C(C)CC[C@H]1C(C)(C)O2 [D9 THCA, delta-9-tetrahydrocannabinolic acid]
data-value: 0.947 µg/mL
//
compound: CCCc1cc(O)c2c(c1)OC(C)(C)[C@@H]1CCC(C)=C[C@@H]21 [THCV, delta-9-tetrahydrocannabivarin]
data-value: 3.52 µg/mL
//
compound: C=C(C)[C@@H]1CCC(C)=C[C@H]1c1c(O)cc(CCCCC)c(C(=O)O)c1O
data-value: 1.70 µg/mL
//
compound: CCCCCc1cc(O)c2c(c1)OC(C)(CCC=C(C)C)C=C2 (stereo not shown)
data-value: 0.322 µg/mL

* * *

experiment: Stability of cannabinoid entourage and Vitamin E components of the powder concentrate by LCMSMS; type: physicochemical; conditions: powder stored at 21-25° C.; 2 days
reported-endpoint: Stability of Plant-Derived Cannabinoid Compounds in Powder Concentrate (mg/g powder)

compound: CCCc1cc(O)c2c(c1)OC(C)(C)[C@@H]1CCC(C)=C[C@@H]21 [THCV, delta-9-tetrahydrocannabivarin]
unit-of-measurement: mg/g powder
data-value: 0.699

compound: C=C(C)[C@@H]1CCC(C)=C[C@H]1c1c(O)cc(CCCCC)c(C(=O)O)c1O
unit-of-measurement: mg/g powder
data-value: 0.407

compound: CCCCCc1cc(O)c2c(c1)OC1(C)CCC3C1C2C3(C)C (stereo not shown)
unit-of-measurement: mg/g powder
data-value: 0.049

compound: CCCCCc1cc(O)c2c(c1)OC(C)(CCC=C(C)C)C=C2 (stereo not shown)
unit-of-measurement: mg/g powder
data-value: 0.071

compound: CCCCCc1cc(O)c2c(c1)OC(C)(C)c1ccc(C)cc1-2
unit-of-measurement: mg/g powder
data-value: 0.488

compound: CCCCCc1cc(O)c(C/C=C(\C)CCC=C(C)C)c(O)c1
unit-of-measurement: mg/g powder
data-value: 1.08

compound: C=C(C)[C@@H]1CCC(C)=C[C@H]1c1c(O)cc(CCC)cc1O
unit-of-measurement: mg/g powder
data-value: 0.051

* * *

test: Stability of cannabinoid compounds and Vitamin E components in Beverage 1 (AB White) by LCMSMS; assay type: physicochemical; conditions: AB White stored at 8° C.; 17 days
Below is a list of entries, each paired with its recorded Stability of Plant-Derived Cannabinoid Compounds in AB White, 8° C. value.
reported-endpoint: Stability of Plant-Derived Cannabinoid Compounds in AB White, 8° C. (µg/mL)

compound: C=C(C)[C@@H]1CCC(C)=C[C@H]1c1c(O)cc(CCC)cc1O
unit-of-measurement: µg/mL
data-value: 0.146
--
compound: CCCCCc1cc(O)c2c(c1)OC(C)(CCC=C(C)C)C=C2 (stereo not shown)
unit-of-measurement: µg/mL
data-value: 0.315
--
compound: CCCCCc1cc(O)c2c(c1)OC(C)(C)c1ccc(C)cc1-2
unit-of-measurement: µg/mL
data-value: 2.82
--
compound: C=C(C)[C@@H]1CCC(C)=C[C@H]1c1c(O)cc(CCCCC)c(C(=O)O)c1O
unit-of-measurement: µg/mL
data-value: 1.73

* * *

assay: Stability of cannabinoid compounds and Vitamin E components in Beverage 2 (AB Red) by LCMSMS; format: physicochemical; details: stored at 21-25° C., 150 days
reported-endpoint: Stability of Plant-Derived Cannabinoid Compounds in AB Red (µg/mL)

compound: CCCCCc1cc(O)c2c(c1)OC(C)(C)[C@@H]1CCC(C)=C[C@@H]21 [D9 THC, delta-9-tetrahydrocannabinol, reference compound]
data-value: 12.4
--
compound: CCCCCc1cc(O)c2c(c1)OC(C)(CCC=C(C)C)C=C2 (stereo not drawn) [CBC, cannabichromene]
data-value: 0.29
--
compound: CCCCCc1cc(O)c(C/C=C(\C)CCC=C(C)C)c(O)c1 [CBG, cannabigerol]
data-value: 4.65
--
compound: CCCc1cc(O)c2c(c1)OC(C)(C)[C@@H]1CCC(C)=C[C@@H]21 [THCV, delta-9-tetrahydrocannabivarin]
data-value: 3.17
--
compound: CCCCCc1cc(O)c2c(c1)OC1(C)CCC3C1C2C3(C)C (stereo not drawn) [CBL, cannabicyclol]
data-value: 0.49
--
compound: C=C(C)[C@@H]1CCC(C)=C[C@H]1c1c(O)cc(CCC)cc1O [CBDV, cannabidivarin]
data-value: 0.20
--
compound: CCCCCc1cc(O)c2c(c1)OC(C)(C)c1ccc(C)cc1-2 [CBN, cannabinol]
data-value: 2.75
--
compound: C=C(C)[C@@H]1CCC(C)=C[C@H]1c1c(O)cc(CCCCC)c(C(=O)O)c1O [CBDA, cannabidiolic acid]
data-value: 1.58
--
compound: CCCCCc1cc2c(c(O)c1C(=O)O)[C@@H]1C=C(C)CC[C@H]1C(C)(C)O2 [D9 THCA, delta-9-tetrahydrocannabinolic acid]
data-value: 1.28

* * *

assay: Stability of cannabinoid compounds and Vitamin E components in Beverage 1 (AB White) by LCMSMS; assay type: physicochemical; details: AB White stored at 21-25° C.; 30 days
reported-endpoint: Stability of Plant-Derived Cannabinoid Compounds in AB White, 21-25° C. (µg/mL)

compound: CCCCCc1cc2c(c(O)c1C(=O)O)[C@@H]1C=C(C)CC[C@H]1C(C)(C)O2 [D9 THCA, delta-9-tetrahydrocannabinolic acid]
data-value: 0.934
--
compound: CCCCCc1cc(O)c2c(c1)OC(C)(CCC=C(C)C)C=C2 (stereo not drawn)
data-value: 0.317
--
compound: CCCCCc1cc(O)c2c(c1)OC(C)(C)[C@@H]1CCC(C)=C[C@@H]21 [D9 THC, delta-9-tetrahydrocannabinol, reference compound]
data-value: 11.9
--
compound: C=C(C)[C@@H]1CCC(C)=C[C@H]1c1c(O)cc(CCCCC)c(C(=O)O)c1O
data-value: 1.71
--
compound: CCCc1cc(O)c2c(c1)OC(C)(C)[C@@H]1CCC(C)=C[C@@H]21 [THCV, delta-9-tetrahydrocannabivarin]
data-value: 3.48
--
compound: CCCCCc1cc(O)c(C/C=C(\C)CCC=C(C)C)c(O)c1
data-value: 4.73
--
compound: C=C(C)[C@@H]1CCC(C)=C[C@H]1c1c(O)cc(CCC)cc1O
data-value: 0.151
--
compound: CCCCCc1cc(O)c2c(c1)OC1(C)CCC3C1C2C3(C)C (stereo not drawn)
data-value: 0.543
--
compound: CCCCCc1cc(O)c2c(c1)OC(C)(C)c1ccc(C)cc1-2
data-value: 2.72

* * *

assay: Stability of cannabinoid entourage and Vitamin E components of the powder concentrate by LCMSMS; assay type: physicochemical; settings: powder stored at 21-25° C.; 480 days
reported-endpoint: Stability of Plant-Derived Cannabinoid Compounds in Powder Concentrate (mg/g powder)

molecule: C=C(C)[C@@H]1CCC(C)=C[C@H]1c1c(O)cc(CCCCC)c(C(=O)O)c1O
unit-of-measurement: mg/g powder
data-value: 0.418
//
molecule: CCCCCc1cc(O)c2c(c1)OC(C)(CCC=C(C)C)C=C2 (stereo not shown)
unit-of-measurement: mg/g powder
data-value: 0.071
//
molecule: CCCCCc1cc(O)c2c(c1)OC1(C)CCC3C1C2C3(C)C (stereo not shown)
unit-of-measurement: mg/g powder
data-value: 0.051
//
molecule: CCCCCc1cc2c(c(O)c1C(=O)O)[C@@H]1C=C(C)CC[C@H]1C(C)(C)O2 [D9 THCA, delta-9-tetrahydrocannabinolic acid]
unit-of-measurement: mg/g powder
data-value: 0.149
//
molecule: C=C(C)[C@@H]1CCC(C)=C[C@H]1c1c(O)cc(CCC)cc1O
unit-of-measurement: mg/g powder
data-value: 0.051
//
molecule: CCCCCc1cc(O)c2c(c1)OC(C)(C)[C@@H]1CCC(C)=C[C@@H]21 [D9 THC, delta-9-tetrahydrocannabinol, reference compound]
unit-of-measurement: mg/g powder
data-value: 2.65
//
molecule: CCCCCc1cc(O)c2c(c1)OC(C)(C)c1ccc(C)cc1-2
unit-of-measurement: mg/g powder
data-value: 0.485
//
molecule: C=C(C)[C@@H]1CCC(C)=C[C@H]1c1c(O)cc(CCCCC)cc1O [CBD, cannabidiol, reference compound]
unit-of-measurement: mg/g powder
data-value: 5.66
//
molecule: CCCCCc1cc(O)c(C/C=C(\C)CCC=C(C)C)c(O)c1
unit-of-measurement: mg/g powder
data-value: 1.12
//
molecule: CCCc1cc(O)c2c(c1)OC(C)(C)[C@@H]1CCC(C)=C[C@@H]21 [THCV, delta-9-tetrahydrocannabivarin]
unit-of-measurement: mg/g powder
data-value: 0.695
